Reference source: the COVID Moonshot data (paper PMC11187573)

biological target: SARS-CoV-2 Main Protease (SARS-CoV-2) (UniProt P0DTD1); settings: 50.0 µM
metricName: inhibition (%)

compound	metricName	valueMeasured
Cc1ccncc1-c1nc(-c2cccc(Cl)c2)no1	inhibition	5.25
O=C(Cc1cccnc1)Nc1cccc(OC2CC(=O)N2)c1 (configuration not stated)	inhibition	71.8
C#CCOc1ccc(N(C(=O)C=C)C(C(=O)NC(C)(C)C)c2cccnc2)cc1 (configuration not stated)	inhibition	-14.8
C=CC(=O)N(c1ccc(C(C)(C)C)cc1)C(C(=O)NC1CCCC1)c1cccnc1 (configuration not stated)	inhibition	-12.8
O=C(Nc1ccccc1Cl)c1cc(Cl)ccc1O	inhibition	5.58
Cn1cc(NC(=O)NCc2ccccn2)c2ccccc2c1=O	inhibition	-6.9
Cn1cc(NC(=O)Nc2cccc(C(F)(F)F)c2)c2ccccc2c1=O	inhibition	0.168
COc1cc(NC(=O)C(=O)Nc2cc(OC)c(OC)c(OC)c2)cc(OC)c1OC	inhibition	4.05
C=CC(=O)NCc1ccc(C(C)NC(=O)OC(C)(C)C)cc1 (configuration not stated)	inhibition	6.84
O=C(Cc1ccc(O)cc1)Nc1cccc2cc[nH]c12	inhibition	-4.9
C=CC(=O)N(c1ccc(C(C)(C)C)cc1)C(C(=O)NC(C)(C)C)c1cncc(Br)c1C (configuration not stated)	inhibition	7.84
N#Cc1cccc(NC(=O)Nc2c[nH]c3ncccc23)c1	inhibition	47.3
O=C(Nc1cccnc1)c1cc(Cl)ccc1O	inhibition	22.8
N#Cc1ccc(CNC(=O)Cc2c[nH]c3ncccc23)cc1	inhibition	1.71
O=C1Nc2cc(Br)ccc2C1=O	inhibition	-4.62
O=C(C1CCN(S(=O)(=O)c2ccccc2)CC1)N1CCOCC1	inhibition	5.52
COc1ccc(-c2cccc(S(=O)(=O)N3CCN(C(C)=O)CC3)c2)cc1	inhibition	2.93
C=CC(=O)N(c1ccc2cc[nH]c2c1)C(C(=O)NC(C)(C)C)c1cccnc1 (configuration not stated)	inhibition	10.5
C=CC(=O)N(c1ccc(C(C)(C)CC)cc1)C(C(=O)Nc1ccc(Cl)cc1)c1cccnc1 (configuration not stated)	inhibition	22.7
CN(C)C(=O)C[C@@H]1CN(C(=O)c2cnn3c2CCC3)c2ccc(Cl)cc21 (stereo in doubt)	inhibition	-10.8
CC(=O)c1cccc(NC(=O)Nc2cn(C)c(=O)c3ccccc23)c1	inhibition	11.9
C=CC(=O)N(c1ccc(C2(C)CC2)cc1)C(C(=O)Nc1ccc(Br)cc1)c1cccnc1 (configuration not stated)	inhibition	47.1

====

target: SARS-CoV-2 Main Protease (SARS-CoV-2); settings: 50.0 µM

compound	inhibition (%)
COc1ccccc1OC(C)CNC(=O)c1cc(=O)[nH]c2cc(F)ccc12 (stereo unspecified)	59
Cc1ccncc1NC(=O)CCc1nc2cc(Cl)ccc2o1	13.1
O=C(C(F)Cl)N1CCCC(c2nc3ccccc3s2)C1 (stereo unspecified)	16.2
O=C(Cn1c(=O)[nH]c2ccccc21)Nc1cccc(Cl)c1	-9.78
C=CC(=O)N(c1ccc(C(C)(C)C)cc1)C(C(=O)NCCC(=O)OCC)c1cccnc1 (stereo unspecified)	46.3
Cc1cc(C)c(C#N)c(Sc2ncnc3c2nnn3Cc2ccccc2)n1	97.7
Cc1nnc(NC(=O)C2COc3ccc(Cl)cc32)n1C1CC1 (stereo unspecified)	-2.41
O=C(Nc1cccnc1)Nc1cccc(Cl)c1	30.9
CCCc1c(C)[nH]c2[nH]n(-c3ccccc3)c(=O)c2c1=O	2.81
O=C(Cc1cccnc1)NCc1ccccc1	7.29
COc1ccccc1OCCN(C)C(=O)c1cc(=O)[nH]c2ccc(Cl)cc12	4.43

====

target: SARS-CoV-2 Main Protease (SARS-CoV-2); conditions: 50.0 µM

compound	unitsLabel	inhibition
CCn1c(=O)n(CC(=O)NCc2cnccn2)c2ccccc21	%	0
O=C(Cc1cccc(Cl)c1)Nn1cnnc1	%	0
COc1cccc(C2=N/C(=C/c3sccc3C)C(=O)O2)c1	%	77.6
O=C(NCc1cccnn1)NC(Cc1ccccc1)c1cccs1 (stereo unspecified)	%	0
O=C(Cc1cccc(Cl)c1)Nc1cnccn1	%	0
CN(C(=O)C1CCOc2ccc(Cl)cc21)c1ccc(Cl)cn1 (stereo unspecified)	%	0
Cc1ccncc1NC(=O)Cc1cc(Cl)cc(OCc2nnc(C3CCCCC3)o2)c1	%	100
O=C(Cc1ccc(O)cc1)Nc1cccc2cc[nH]c12	%	0
O=C(c1cc(=O)[nH]c2ccc(F)cc12)N1CCN(S(=O)(=O)c2cccc(Cl)c2)CC1	%	52.8
Cc1[nH]ncc1NC(=O)Cc1cccc(Cl)c1	%	52.1
O=C(NCCc1ccc2c(c1)CCO2)NCc1cccc(N2C(=O)NC3(CCCC3)C2=O)c1	%	-30.5

====

target: SARS-CoV-2 Main Protease (SARS-CoV-2) (UniProt P0DTD1); conditions: 50.0 µM
Please use Met whenever inhibition is not below 7%, and Not met whenever it is.

compound	assignedCategory
Cc1ccc(S(=O)(=O)N2CCN(C(=O)c3cc(=O)[nH]c4cc(F)ccc34)CC2)c(C)c1	Met
O=C(c1cc(=O)[nH]c2ccccc12)N1CCN(c2ccccc2)CC1	Met
CCOc1ccccc1OC1CCN(C(=O)c2c(C)c(=O)[nH]c3ccccc23)C1 (configuration not stated)	Not met
O=C(NCc1cccnn1)Nc1cccc(N2CCC2=O)c1	Not met
COc1cc(OC)cc(Oc2ccc(CNC(=O)Cn3nnc4ccccc43)cc2)c1	Not met
COC(=O)c1cc(Br)cc2c1NC(=O)C2=O	Met
Cc1ccncc1NC(=O)Cc1cccc(Br)c1	Met
COc1ccccc1OC1CCCN(C(=O)c2c(C)c(=O)[nH]c3ccccc23)C1 (configuration not stated)	Not met
N#CCN1CCN(Cc2cc(Cl)cc3ccccc23)CC1	Met
C=CC(=O)N(c1ccc(C(C)(C)C)cc1)C(C(=O)NCCc1cccc(F)c1)c1cncc(C#N)c1 (configuration not stated)	Met
NS(=O)(=O)c1ccc(N2CCC(c3ccco3)CC2)cc1	Met
CC(C)[C@@H](C#N)NS(=O)(=O)c1ccc(CF)cc1 (stereo in doubt)	Met
C=CC(=O)N(c1ccc(C(C)(C)C)cc1)C(C(=O)NCCCOC)c1cccnc1 (configuration not stated)	Met
OC[C@@]1(F)CCN(c2nc(-c3cccnc3)nc3sc4c(c23)CCC4)C1 (stereo in doubt)	Not met
O=C(Nc1ccc([N+](=O)[O-])cc1)c1cc(Cl)ccc1O	Not met
C=CC(=O)N(c1ccc(C(C)(C)C)cc1)C(C(=O)NC(C)(C)C)c1cncc2ccccc12 (configuration not stated)	Not met
O=C(CCl)N1CCN(Cc2cccc(CNC(=O)N3CCOCC3)c2)CC1	Met
C=CC(=O)N(c1ccc(C2(C)CC2)cc1)C(C(=O)Nc1cccc(F)c1C)c1cccnc1 (configuration not stated)	Not met
Cc1ccncc1NC(=O)C(C)CC1CC1 (configuration not stated)	Not met
O=C(CN(C(=O)Cc1cccnc1)c1ccc(-c2ncccn2)cc1)N1CCNCC1	Not met
CCN(Cc1cccc(-c2ccncc2)c1)C(=O)Cn1nnc2ccccc21	Not met

====

Parameter inhibition: see the listing below.
molecular target: SARS-CoV-2 Main Protease (SARS-CoV-2) (UniProt P0DTD1); settings: 50.0 µM

compound	unitsLabel	inhibition
O=C(CCl)Nc1nc2c(S(=O)(=O)NCCc3ccccc3)cccc2s1	%	80.3
CCCSCC(=O)C(C#N)C(=O)Nc1ccccc1F (configuration not stated)	%	2.12
CC(=O)Nc1ccc(NCC(=O)Nc2cnccc2C)cc1	%	0
COc1ccc(Cl)cc1N1CCN(Cc2cc(=O)[nH]c3ccccc23)C1=O	%	0
CNC(=O)OC1CCN(C(=O)c2ccccc2)CC1	%	0
Cc1cc(Cl)cc(CC2CCN(C(=O)CCl)CC2)c1	%	100
CC(C)C1=C(O)C(=O)C2=C(CC[C@H]3C(C)(C)CCC[C@]23C)C1=O (stereo in doubt)	%	10.2
CCOC(=O)[C@@H](CCc1ccccc1)N[C@H](C)C(=O)Nc1cccc(CN2CCCC2)c1 (stereo in doubt)	%	6.6
O=C(CCl)N1CCCC(c2nc(-c3cccnc3)nc3ccccc23)C1 (configuration not stated)	%	100
CO[C@@H]1C[C@@H](COc2cccnc2)N(c2ncccn2)C1 (stereo in doubt)	%	0
Cc1ccncc1NC(=O)CCOC1CC1	%	0
O=C(C1CCN(c2ccncc2)CC1)N1CCOCC1	%	0
C=CC(=O)N(c1ccc(C(C)(C)C)cc1)C(C(=O)NC(C)(C)C)c1cccnc1C (configuration not stated)	%	0
COc1ccccc1OCCNC(=O)c1cc(=O)[nH]c2ccccc12	%	83.8
O=C(CCl)Nc1cccc(-c2ccc3c(c2)CCCC3)c1	%	47.7
C=CC(=O)N(c1ccc2c(c1)C=CCCC2)C(C(=O)NC(C)(C)C)c1cccnc1 (configuration not stated)	%	0
CC(C)[C@H](NC(=O)OCc1ccccc1)C(=O)NC(C=O)Cc1ccccc1 (stereo in doubt)	%	0
CNC(=O)OC1CCN(C(=O)c2ccncc2)CC1	%	2.15
C=CC(=O)N(C(CO)CC#CC)C(C(=O)NC(C)(C)C)c1cccnc1 (configuration not stated)	%	0
C/C(O)=C(\C#N)C(=O)Nc1ccc(C(F)(F)F)cc1	%	22.2
Cc1cccc(C2CN(C(=O)CCl)Cc3ccccc32)c1 (configuration not stated)	%	53.8
O=C(c1cc(=O)[nH]c2ccccc12)N1CCN(Cc2cccc(C(F)(F)F)c2)CC1	%	24.8
